Assay: A CellTox Green Cytotoxicity Assay to monitor cytotoxicity in HepG2 cells - 16 hour (AID 1224876); note: nearly all actives have a fitted effect of over 45% in size
Conditions: CellTox Green fluorescence; series mostly up to 76.8 µM
Results filed as inconclusive are left out. Activity calls are given as the source filed them. Calls come from the whole dose curve; as a rule, active = well fitted activation curve with a large enough effect in the repeat runs; inconclusive = weak or mixed curves; inactive = flat fitted curve, though single readings scatter.
Please answer using one outcome listed in active, inactive

Reference set, count: 5
[[record]]
compound = "O=CNC(N1CCN(C(NC=O)C(Cl)(Cl)Cl)CC1)C(Cl)(Cl)Cl (stereo not drawn)"
assigned_category = "inactive"

[[record]]
compound = "COP(=S)(OC)Oc1c(Cl)cc(C)cc1Cl"
assigned_category = "inactive"

[[record]]
compound = "CC(C)CP(=S)(S)CC(C)C"
assigned_category = "inactive"

[[record]]
compound = "C#CCN1C(=O)COc2cc(F)c(N3C(=O)C4=C(CCCC4)C3=O)cc21"
assigned_category = "inactive"

[[record]]
compound = "CCCCP(CCCC)CCCC"
assigned_category = "inactive"


Q. State the result this test recorded for CC1COC2(c3ccccc3Cl)c3cc(Cl)ccc3NC(=O)CN12 (stereo not drawn) .
A. inactive

Q. State the result this test recorded for Cc1cc(C)nc(Nc2ccccc2)n1 .
A. inactive

Q. State the result this test recorded for CCCSC(=O)Cl .
A. inactive

Q. State the result this test recorded for CCCCc1ccc(O)cc1 .
A. active

Q. State the result this test recorded for CC1(C)C(=O)NC(=O)NC1=O .
A. inactive

Q. State the result this test recorded for O=C(O)c1ccc2[nH]cc(CCCCN3CC=C(c4ccccc4)CC3)c2c1 .
A. inactive

Q. State the result this test recorded for CN1CCN(C(=O)O[C@H]2c3nccnc3C(=O)N2c2ccc(Cl)cn2)CC1 .
A. inactive

Q. State the result this test recorded for ClC(Cl)(Cl)C(Cl)(Cl)Cl .
A. inactive

Origin of the recorded values: PubChem BioAssay (Tox21)
